# Tested on: M14 melanoma
# test-details: NCI tumour cell line growth inhibition, 48 h; in the data active means GI50 below about 0.43 µM; inactive means the rest
Classes used: y for active, n for inactive

>>> discrete_label("CCN1CCN(c2cc(C)nc(N(CCCNc3ccnc4cc(Cl)ccc34)Cc3ccc4c(c3)OCO4)n2)CC1")
"n"
>>> discrete_label("O=C(/C=C/c1ccc(O)c(O)c1)NCc1c[nH]c2ccccc12")
"n"
>>> discrete_label("CSc1ncc(Br)c(Sc2nc(N)nc3nc[nH]c23)n1")
"n"
>>> discrete_label("CC(C)(O)/C=C/C(=O)[C@](C)(O)[C@H]1[C@H](O)C[C@@]2(C)[C@@H]3CC=C4[C@@H](C[C@H](O)C(=O)C4(C)C)[C@]3(C)C(=O)C[C@]12C")
"y"
>>> discrete_label("Clc1cccc(N2CCN(CCCN3CCc4c([nH]c5ccccc45)C3c3cccnc3)CC2)c1 (centres undefined)")
"n"
>>> discrete_label("CN(C)CCNC(=O)c1ccc(-c2nc3ccc4[nH]ncc4c3c3c2C2CCC3C2)cc1 (centres undefined)")
"n"
>>> discrete_label("COc1cccc(CN(C)c2ccc(CO)c(Cl)c2)c1")
"n"
>>> discrete_label("C1=C/COCc2cc(ccc2OCCN2CCCC2)Nc2nccc(n2)-c2ccc(o2)COC/1")
"n"
>>> discrete_label("N#C/C(=C\\c1ccc([N+](=O)[O-])s1)c1nc2cc(Cl)ccc2s1")
"y"

Each recorded value in this set is attributed to PubChem BioAssay (NCI).
